Please provide measured EC50 for the entries that follow.
- TESTED_TARGET: human F508del-CFTR (Homo sapiens, UniProt P13569, DEL508-508)
- Sequence (P13569 with tags, fused parts or gaps DEL508-508): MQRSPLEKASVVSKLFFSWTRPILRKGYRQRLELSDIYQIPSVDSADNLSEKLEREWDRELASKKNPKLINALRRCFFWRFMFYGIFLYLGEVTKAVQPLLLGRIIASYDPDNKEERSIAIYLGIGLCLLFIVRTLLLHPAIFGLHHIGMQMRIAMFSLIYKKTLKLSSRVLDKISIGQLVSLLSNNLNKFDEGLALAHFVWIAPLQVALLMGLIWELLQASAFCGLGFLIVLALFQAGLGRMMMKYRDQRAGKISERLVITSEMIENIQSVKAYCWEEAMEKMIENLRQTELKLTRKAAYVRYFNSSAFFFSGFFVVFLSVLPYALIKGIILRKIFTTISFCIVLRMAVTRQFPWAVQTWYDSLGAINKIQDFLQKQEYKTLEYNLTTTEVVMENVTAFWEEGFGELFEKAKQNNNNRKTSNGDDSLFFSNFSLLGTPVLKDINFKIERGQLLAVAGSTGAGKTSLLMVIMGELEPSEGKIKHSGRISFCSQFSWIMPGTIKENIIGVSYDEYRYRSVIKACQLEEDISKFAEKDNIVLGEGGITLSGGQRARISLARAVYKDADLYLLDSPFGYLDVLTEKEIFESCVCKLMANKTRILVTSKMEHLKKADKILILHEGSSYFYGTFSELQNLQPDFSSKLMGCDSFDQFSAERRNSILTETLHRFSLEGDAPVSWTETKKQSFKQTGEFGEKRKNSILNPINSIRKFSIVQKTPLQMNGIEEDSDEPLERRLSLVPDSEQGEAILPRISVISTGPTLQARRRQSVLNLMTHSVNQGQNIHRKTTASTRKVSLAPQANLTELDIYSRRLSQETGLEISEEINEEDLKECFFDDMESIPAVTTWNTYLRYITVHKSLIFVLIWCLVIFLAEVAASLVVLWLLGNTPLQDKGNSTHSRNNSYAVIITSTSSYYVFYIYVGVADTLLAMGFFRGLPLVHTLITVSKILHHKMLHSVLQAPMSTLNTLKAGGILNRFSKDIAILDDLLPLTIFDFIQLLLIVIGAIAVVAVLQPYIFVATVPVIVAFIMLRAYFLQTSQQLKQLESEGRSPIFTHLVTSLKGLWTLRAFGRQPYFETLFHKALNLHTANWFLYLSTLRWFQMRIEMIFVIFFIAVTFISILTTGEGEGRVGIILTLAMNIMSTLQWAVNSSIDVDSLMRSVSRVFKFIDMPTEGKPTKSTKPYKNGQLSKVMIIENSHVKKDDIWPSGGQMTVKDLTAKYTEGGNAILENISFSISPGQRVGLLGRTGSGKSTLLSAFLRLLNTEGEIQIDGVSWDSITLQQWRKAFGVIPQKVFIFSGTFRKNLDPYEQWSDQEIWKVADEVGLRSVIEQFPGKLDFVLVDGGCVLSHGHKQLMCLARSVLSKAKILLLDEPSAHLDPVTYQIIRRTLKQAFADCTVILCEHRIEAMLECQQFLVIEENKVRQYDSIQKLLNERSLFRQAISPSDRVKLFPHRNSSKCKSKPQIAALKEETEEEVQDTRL
- ASSAY_METHOD_TEXT: F508del-CFTR cell surface expression (corrector activity), DiscoveRx ß-galactosidase complementation chemiluminescence assay in recombinant U2OS cell line
- DETAILS: EC50, F508del-CFTR cell surface expression, U2OS cells, 16h compound incubation; geomean values
Answers are plain numbers, in nM.

Solved entries (count: 2):
# ITEM_SMILES, UNITS_TEXT, EC50
data = [
    ("CC(C)C[C@H]1C(=O)N(C)C2(CC2)C(=O)N[C@H](Cc2ccccc2)COc2ccc3ncccc3c2C(=O)N[C@H](C(=O)NCCc2noc(C3CC3)n2)CC(=O)N1C", "nM", 774),
    ("Cc1cc(CCNC(=O)[C@@H]2CC(=O)N(C)[C@@H](CC(C)C)C(=O)N(C[C@@H]3COc4ccccc4C3)CC(=O)N[C@H](Cc3ccccc3)COc3cnc4ccccc4c3C(=O)N2)on1", "nM", 305),
]

Proceed to the following item.
QUERY: Output measured EC50 for this item: COc1nccc2c1C(=O)N[C@H](C(=O)NCCc1noc(C3CC3)n1)CC(=O)N(C)[C@@H](CC(C)C)C(=O)N(C)[C@H](CCc1nc(-c3ccccc3)no1)C(=O)N[C@H](Cc1ccccc1)CO2
RESULT: 47

----------
- TESTED_TARGET: human F508del-CFTR (Homo sapiens, UniProt P13569, DEL508-508)
- ASSAY_METHOD_TEXT: F508del-CFTR cell surface expression (corrector activity), DiscoveRx ß-galactosidase complementation chemiluminescence assay in recombinant U2OS cell line
- DETAILS: EC50, F508del-CFTR cell surface expression, U2OS cell line, 16h compound incubation; geomean values
MEASUREMENT_KIND: pEC50
One number for each entry, as −log10 of the molar value.

Quick request: pEC50 for each listed item, please.
1. COc1nccc2c1C(=O)N[C@H](C(=O)NCCc1cc(C(F)(F)F)no1)CC(=O)N(C)[C@@H](CC(C)C)C(=O)N1CCCC[C@@H]1C(=O)N[C@H](Cc1ccccc1)CO2
2. COc1cccc2c1C(=O)N[C@H](C(=O)NCCc1ccc3c(c1)OCO3)CC(=O)N(C)[C@@H](CC(C)C)C(=O)N(CC[C@H]1CCCCO1)CC(=O)N[C@H](Cc1ccccc1)CO2 (racemic)
3. COc1cc(CCNC(=O)[C@@H]2CC(=O)N(C)[C@@H](CC(C)C)C(=O)N(CCC3CCCCC3)CC(=O)N[C@H](Cc3ccccc3)COc3cccc(OC)c3C(=O)N2)cc(OC)c1
4. CC(C)C[C@H]1C(=O)N(C)C2(CC2)C(=O)N[C@H](Cc2ccccc2)COc2cnc3ccccc3c2C(=O)N[C@H](C(=O)NCCc2cc(F)cc(F)c2)CC(=O)N1C

RESULT:
6.19
6.24
6.76
6.48

----------
- TESTED_TARGET: human F508del-CFTR (Homo sapiens, UniProt P13569, DEL508-508)
- ASSAY_METHOD_TEXT: F508del-CFTR cell surface expression (corrector activity), DiscoveRx ß-galactosidase complementation chemiluminescence assay in recombinant U2OS cell line
- DETAILS: EC50, F508del-CFTR cell surface expression, U2OS cell line, 16h compound incubation; geomean values
MEASUREMENT_KIND: EC50 (nM)
Answers are plain numbers, in nM.

Consider the following illustrative entries.
# COMPOUND, MEASUREMENT_KIND, MEASURED
measured = [
    ("Cc1cccc(CCNC(=O)[C@@H]2CC(=O)N(C)[C@@H](CC(C)C)C(=O)N3CCCC[C@@H]3C(=O)N[C@H](Cc3ccccc3)COc3cnc4ccccc4c3C(=O)N2)c1", "EC50", 425),
    ("COc1nccc2c1C(=O)N[C@H](C(=O)NCCn1cc(C3CC3)cn1)CC(=O)N(C)[C@@H](CC(C)C)C(=O)N1CCCC[C@@H]1C(=O)N[C@H](Cc1ccccc1)CO2", "EC50", 731),
    ("CC(C)C[C@H]1C(=O)N(CCOC(C)(C)C)CC(=O)N[C@H](Cc2ccccc2)COc2ccc3ccccc3c2C(=O)N[C@H](C(=O)NCCc2ccc3c(c2)OCO3)CC(=O)N1C", "EC50", 270),
    ("COC1CC(CCN2CC(=O)N[C@H](Cc3ccccc3)COc3ccc4ccccc4c3C(=O)N[C@H](C(=O)NCCc3ccc4c(c3)OCO4)CC(=O)N(C)[C@@H](CC(C)C)C2=O)C1 (stereo partly drawn)", "EC50", 207),
    ("COc1cccc(CCNC(=O)[C@@H]2CC(=O)N(C)[C@@H](CC(C)C)C(=O)N3CCN(CC(C)C)C[C@@H]3C(=O)N[C@H](Cc3ccccc3)COc3cnc4ccccc4c3C(=O)N2)c1", "EC50", 72),
]

For the 4 compounds below, give their EC50 values.
1. COc1cccc(CCNC(=O)[C@@H]2CC(=O)N(C)[C@@H](CC3CCCC3)C(=O)N(C[C@H]3CCCCO3)CC(=O)N[C@H](Cc3ccccc3)COc3cccc(OC)c3C(=O)N2)c1
2. COc1cccc(CCNC(=O)[C@@H]2CC(=O)N(C)[C@@H](CC(C)C)C(=O)NC3(CC3)C(=O)N[C@H](Cc3ccccc3)COc3ccc4ccccc4c3C(=O)N2)c1
3. COc1cccc(CCNC(=O)[C@@H]2CC(=O)N(C)[C@@H](CC3CCCCC3)C(=O)N(CC[C@H]3CCCCO3)CC(=O)N[C@H](Cc3ccccc3)COc3ccc4ccccc4c3C(=O)N2)c1 (racemic)
4. CN1C(=O)C[C@@H](C(=O)NCCc2ccc3c(c2)OCO3)NC(=O)c2c(ccc3ccccc23)OC[C@@H](Cc2ccccc2)NC(=O)CN(CCC2CCCCC2)C(=O)[C@@H]1CC1CCCC1 (mixture of isomers)

RESULT:
1: 313; 2: 393; 3: 109; 4: 188

----------
- TESTED_TARGET: human F508del-CFTR (Homo sapiens, UniProt P13569, DEL508-508)
- ASSAY_METHOD_TEXT: F508del-CFTR cell surface expression (corrector activity), DiscoveRx ß-galactosidase complementation chemiluminescence assay in recombinant U2OS cell line;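 also: U2OS cells co-expressing ProLink-tagged F508del-CFTR and a membrane-anchored enzyme acceptor, where more surface CFTR restores β-galactosidase activity measured by chemiluminescence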
- DETAILS: EC50, F508del-CFTR cell surface expression, U2OS cell line, 16h compound incubation; geomean values
Would you kindly list pEC50 for each of these compounds?
Answers are plain numbers, as −log10 of the molar value.

The cases that follow already have their pEC50 on record.
# ITEM_SMILES, pEC50
data = [
    ("CC(C)C[C@H]1C(=O)N2CCOC[C@@H]2C(=O)N[C@H](Cc2ccccc2)COc2cnc3ccccc3c2C(=O)N[C@H](C(=O)NCCc2cccc(Br)c2)CC(=O)N1C", 6.46),
    ("CC(C)C[C@H]1C(=O)N2CCCC[C@@H]2C(=O)N[C@H](Cc2ccccc2)COc2cnc3ccc(F)cc3c2C(=O)N[C@H](C(=O)NCCc2noc(C(C)C)n2)CC(=O)N1C", 6.84),
    ("CC(C)C[C@H]1C(=O)N(C)C2(CC2)C(=O)N[C@H](Cc2ccccc2)COc2cnc3ccc(F)cc3c2C(=O)N[C@H](C(=O)NCCc2ccc(-n3nccn3)cc2)CC(=O)N1C", 6.75),
]

Now let's try a different one.
QUERY: Dear colleague, please send me the reported pEC50 for CC(C)C[C@H]1C(=O)N(C)C2(CC2)C(=O)N[C@H](Cc2ccccc2)COc2cnc3ccc(F)cc3c2C(=O)N[C@H](C(=O)NCCc2cnn(C)c2)CC(=O)N1C when you can.
RESULT: 6.04

Data credit: patent US20240208992A1
